# SYSTEM_UNDER_TEST: human PDHK2 (hPDHK2) (Homo sapiens (Human))
# MEASUREMENT_DESCRIPTION: Inhibitory action of PDHK activity in vitro (kinase reaction, residual PDH activity measured)
# Type: biochemical
# CONDITIONS_USED: read-out: PDHK inhibitory activity IC50
pIC50: −log10 of the molar value.
MEASUREMENT_LABEL: pIC50

# MOLECULE, MEASUREMENT_LABEL, VALUE_COMPARATOR, ENDPOINT_RESULT
data = [
    ("CN1CCN(c2ccc3c(c2)C(O)(C(F)(F)F)c2ccccc2-3)CC1 (stereo not shown) [compound 162]", "pIC50", "=", 5.54),
    ("O=C(c1ccc2c(c1)C(O)(C(F)(F)F)c1ccccc1-2)N1CCC(CO)C1 (stereo not shown) [compound 225]", "pIC50", "=", 6.21),
    ("Cc1cc(C(=O)NCCCCO)cc2c1-c1ccccc1C2(O)C(F)(F)F (stereo not shown) [compound 338]", "pIC50", "<", 6.00),
    ("Cn1cc(-c2cc(OCC(O)CO)cc3c2-c2ccccc2C3(O)C(F)(F)F)cn1 (stereo not shown) [compound 571]", "pIC50", "=", 7.30),
]

----------
# SYSTEM_UNDER_TEST: human PDHK2 (hPDHK2) (Homo sapiens (Human), UniProt Q15119)
# MEASUREMENT_DESCRIPTION: Inhibitory action of PDHK activity in vitro (kinase reaction, residual PDH activity measured)
# Assay type: biochemical
# CONDITIONS_USED: read-out: PDHK inhibitory activity IC50
pIC50: −log10 of the molar value.
Kind request: treat 7 as inclusive, so pIC50 at 7 or higher is True, anything lower is False.

# MOLECULE, CLASS_NAME
records = [
    ("NC(=O)CCOc1ccc2c(c1)C(O)(C(F)(F)F)c1ccccc1-2 (centres unmarked) [compound 301]", "False"),
    ("Cc1ccccc1-c1ccc2c(c1)C(O)(C(F)(F)F)c1ccccc1-2 (centres unmarked) [compound 151]", "False"),
    ("CN(CCCO)C(=O)c1ccc2c(c1)C(O)(C(F)(F)F)c1ccccc1-2 (centres unmarked) [compound 327]", "False"),
    ("NC(=O)CCn1cc(-c2cccc3c2-c2ccccc2C3(O)C(F)(F)F)cn1 (centres unmarked) [compound 486]", "True"),
    ("OC1(C(F)(F)F)c2ccccc2-c2ccc(C3CC3)cc21 (centres unmarked) [compound 244]", "False"),
    ("CC(C)Oc1ccc2c(c1)C(O)(C(F)(F)F)c1ccccc1-2 (centres unmarked) [compound 110]", "False"),
    ("Cn1cc(-c2cnc3c(c2)C(O)(C(F)(F)F)c2ccccc2-3)cn1 (centres unmarked) [compound 562]", "True"),
    ("NC(=O)c1ccc(-c2ccc3c(c2)C(O)(C(F)(F)F)c2ccccc2-3)cc1 (centres unmarked) [compound 199]", "False"),
    ("CNC(=O)CCOc1ccc2c(c1)C(O)(C(F)(F)F)c1ccccc1-2 (centres unmarked) [compound 302]", "False"),
    ("Cn1cc(-c2cc(OCC(=O)N3CC(CO)C3)cc3c2-c2ccccc2C3(O)C(F)(F)F)cn1 (single isomer, unassigned) [compound 474]", "True"),
    ("OC1(C(F)(F)F)c2ccccc2-c2ccc(OC3CCC3)cc21 (centres unmarked) [compound 128]", "False"),
    ("O=C(O)CCCOc1cc(-c2cccnc2)c2c(c1)C(O)(C(F)(F)F)c1ccccc1-2 (single isomer, unassigned) [compound 561]", "True"),
    ("OCCOc1ccc2c(c1)C(O)(C(F)(F)F)c1ccccc1-2 (centres unmarked) [compound 292]", "False"),
    ("NC(=O)COc1cc(-c2cn[nH]c2)c2c(c1)C(O)(C(F)(F)F)c1ccccc1-2 (centres unmarked) [compound 503]", "True"),
    ("OC1(C(F)(F)F)c2ccccc2-c2ccc(Cl)cc21 (centres unmarked) [compound 5]", "False"),
    ("O=C(O)COc1ccc2c(c1)C(O)(C(F)(F)F)c1ccccc1-2 (centres unmarked) [compound 287]", "False"),
]
